tested on: P. falciparum stage V gametocytes; parameters: BacTiter-Glo ATP luminescence viability of purified stage V gametocytes in 384-well plates, per cent inhibition versus DMSO; settings: 48 h, 5 µM; inhibitor
About 3,200 (25%) of roughly 13,000 compounds showed an effect of 50% or more. This is one part of the list.
quantity-measured: % Inhibition (%)
Give just the numeric value; % need not be written.

# compound, experimental-system, % Inhibition / %
data = [
    ("COc1c(C2CCN(CCN3CCC(CNC(=O)c4ccc(-c5ccc(C#N)cc5)cc4)CC3)CC2)ccc2c1CCCC2", "P. falciparum stage V gametocytes", 105.9),
    ("CCCN(CC1CC1)c1ncc(-c2cccc(CNCCC3CCCN3C)c2)cn1 (stereo not shown)", "P. falciparum stage V gametocytes", 40.53),
    ("CN1CCCC1CCNCc1cccc(-c2cnc(N3CCCC(C)(C)C3)nc2)c1 (stereo not shown)", "P. falciparum stage V gametocytes", 90.28),
]

Next compound, please.
Exercise: Supply recorded % Inhibition for COc1cc(C(=O)NC2CCN(Cc3ccccc3)CC2)ccc1-c1nc2cc(Cl)c(C)cc2[nH]1 here.
Solution: -62.59
